MEASURED_QUANTITY: melting point

// solved cases for melting point follow
MOLECULE: CCOc1nn(-c2ccc(C(F)(F)F)cn2)cc1CCOc1cccc(OC(C)(C)C(=O)O)c1
MEASURED_VALUE: 89 to 90 °C
//
MOLECULE: COc1ccc(-c2ccc(OC3SCC(O)C(O)C3O)cn2)cn1 (centres undefined)
MEASURED_VALUE: 167 °C
//
MOLECULE: Cc1cc(C(=O)c2ccc(Cl)cc2)ccc1[N+](=O)[O-]
MEASURED_VALUE: 105 to 108 °C

## Task Please list melting point recorded for the molecule `NC(=O)c1nnn(Cc2c(Cl)cccc2Cl)c1N`
## Result 243 to 245 °C

## Task Specify reported melting point for the molecule shown: `CCOC(=O)N1CCN(C=C2C(=O)Nc3cc(OC)c(OC)cc32)CC1`
## Result 172 to 174 °C

## Task Answer with reported melting point of `COc1ccc(/C=C/c2cc(/C=C/c3ccc4cc[nH]c4c3)[nH]n2)c(OC)c1`
## Result 121 to 133 °C

## Task Give melting point for the following molecule: `NS(=O)(=O)c1cc(C(=O)O)cc(N2CCCC2)c1Oc1ccccc1`
## Result 214 to 217 °C

## Task Consider the molecule CCn1nnc2cc3c(cc2c1=O)OC1CCCN1C3=O (centres undefined) . State its measured melting point.
## Result 186 to 188 °C

## Task Given COc1ccc(C2CN(C(C)=O)C(=O)O2)cc1OC (centres undefined) , respond with its melting point.
## Result 175 to 182 °C
